System Under Test: human PDE10A2 (Homo sapiens (Human))
Sequence (Q9Y233 267-1055): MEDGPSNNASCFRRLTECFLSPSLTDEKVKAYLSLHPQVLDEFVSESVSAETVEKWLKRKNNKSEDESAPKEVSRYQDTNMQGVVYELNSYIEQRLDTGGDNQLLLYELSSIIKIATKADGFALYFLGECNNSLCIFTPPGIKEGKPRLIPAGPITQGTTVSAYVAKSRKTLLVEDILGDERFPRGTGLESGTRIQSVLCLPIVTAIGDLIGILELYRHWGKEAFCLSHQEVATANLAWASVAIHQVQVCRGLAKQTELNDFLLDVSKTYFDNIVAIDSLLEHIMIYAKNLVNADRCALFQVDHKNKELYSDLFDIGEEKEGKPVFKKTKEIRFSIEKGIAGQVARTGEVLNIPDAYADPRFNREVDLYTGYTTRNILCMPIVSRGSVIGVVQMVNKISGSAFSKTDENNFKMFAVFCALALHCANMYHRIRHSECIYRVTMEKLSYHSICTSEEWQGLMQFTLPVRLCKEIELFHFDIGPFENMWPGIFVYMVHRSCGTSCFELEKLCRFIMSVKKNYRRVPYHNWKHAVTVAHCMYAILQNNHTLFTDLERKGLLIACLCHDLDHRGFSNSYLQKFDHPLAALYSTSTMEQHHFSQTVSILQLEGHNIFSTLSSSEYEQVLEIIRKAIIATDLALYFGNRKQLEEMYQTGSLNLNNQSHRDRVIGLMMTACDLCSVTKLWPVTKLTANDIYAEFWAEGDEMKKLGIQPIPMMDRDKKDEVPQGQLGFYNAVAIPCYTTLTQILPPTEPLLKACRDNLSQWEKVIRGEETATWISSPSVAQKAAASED
Test Description: PDE10 fluorescence polarization (IMAP FP) inhibition assay
Condition Notes: human PDE10A2 from transfected AD293 cell lysate; FAM-labeled cAMP 50 nM; room temperature; read-out: PDE10A Ki
pKi: −log10 of the molar value.
Quantity Name: pKi

COc1ccc([C@H]2C[C@@H]2COc2nc(C)ncc2C2=CCC(O)CC2)nc1 (some centres unmarked) [1-31]
9.82

I: Cn1cc(-c2cc3ccncc3nc2OC[C@H]2C[C@@H]2c2ccc3ncccc3n2)cn1 [1-42]
II: COc1ccc([C@H]2C[C@@H]2COc2nc3cccnc3cc2C2CCCN(C(C)=O)C2)nc1 (some centres unmarked) [RR4]
III: COc1ccc([C@H]2C[C@@H]2COc2nc3cccnc3cc2-c2cnn(CCO)c2)nc1 [LL3]
IV: COc1ccc([C@H]2C[C@@H]2COc2nc(C)ncc2-c2ccc(C)nc2)nc1 [1-73]
Task: Would you mind ranking these compounds by ascending pKi? Please, when replying, give the labels in the order that was requested.
Result: II, IV, III, I
